# target system: Ag85c (Mycobacterium tuberculosis)
# Sequence (P9WQN9 46-340 limits assumed): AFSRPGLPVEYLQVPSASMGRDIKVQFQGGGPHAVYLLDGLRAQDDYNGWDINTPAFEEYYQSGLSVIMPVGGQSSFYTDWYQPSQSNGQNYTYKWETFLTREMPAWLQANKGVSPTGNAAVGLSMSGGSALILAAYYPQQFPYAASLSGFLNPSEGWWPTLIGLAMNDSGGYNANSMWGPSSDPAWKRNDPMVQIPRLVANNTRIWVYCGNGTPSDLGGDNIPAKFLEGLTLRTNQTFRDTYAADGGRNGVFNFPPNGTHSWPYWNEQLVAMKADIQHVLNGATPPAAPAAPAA
pKi: −log10 of the molar value.

| smiles input | pKi |
| --- | --- |
| CCCCCC(=O)OC[C@H]1O[C@H](O[C@H]2O[C@H](COC(=O)CCCCC)[C@@H](O)[C@H](O)[C@H]2O)[C@H](O)[C@@H](O)[C@@H]1O | 3.45 |
